// data source = PubChem BioAssay

Provide the recorded GFP response, % of DMSO for the entries that follow.
- experiment-notes: modulators of AGP1-GFP expression in yeast TOR pathway, primary screen, cell-based, multiplex flow cytometry, S. cerevisiae (AID 1887)
- condition-set: 3 h, at 10 µM, hits give high values
Records with an inconclusive call do not appear. Activity calls are given as the source filed them. How the source made its calls: active means GFP response above 124.5% (further conditions apply). Peptide text beside a SMILES is read from it.

Could you share which GFP response, % of DMSO value was measured for CC12CN3CC(C)(CN(C1)C31CCOCC1)C2=O ? 94.5% (inactive)

Could you share which GFP response, % of DMSO value was measured for CC(C)C[C@H](NC(=O)[C@@H]1CCCN1C(=O)[C@@H](N)Cc1ccc(O)cc1)C(=O)NCC(N)=O (H-YPLG-NH2) ? 103% (inactive)

Could you share which GFP response, % of DMSO value was measured for COc1ccc(NC2=NCC(C)S2)cc1 (centres undefined) ? 96% (inactive)

Could you share which GFP response, % of DMSO value was measured for C[C@]12CC[C@@H](O)C[C@@H]1CC[C@@H]1[C@@H]2CC[C@]2(C)C(=O)CC[C@@H]12 ? 101% (inactive)

Could you share which GFP response, % of DMSO value was measured for CCn1ccnc1CN1CCCC(C(=O)c2cc(F)ccc2OC)C1 (centres undefined) ? 102% (inactive)

Could you share which GFP response, % of DMSO value was measured for CCOc1ccc(C2C(C#N)=C(N)Oc3c2c(=O)oc2ccccc32)cc1 (centres undefined) ? 101% (inactive)

Could you share which GFP response, % of DMSO value was measured for COP(=O)(OC)C(O)C(Cl)(Cl)Cl (centres undefined) ? 102% (inactive)

Could you share which GFP response, % of DMSO value was measured for COc1ccc2c(c1)CC1(CN2C)C(=O)NC(=O)N(CCc2ccccc2)C1=O (centres undefined) ? 97.8% (inactive)

Could you share which GFP response, % of DMSO value was measured for Clc1ccc(C2NCCc3[nH]cnc32)cc1 (centres undefined) ? 104% (inactive)

Could you share which GFP response, % of DMSO value was measured for O=c1[nH]c2ccccc2n1C1CCN(CCCC(c2ccc(F)cc2)c2ccc(F)cc2)CC1 ? 120% (inactive)

Could you share which GFP response, % of DMSO value was measured for [N-]=[N+]=NC1C[C@H](n2ccc(=O)[nH]c2=O)O[C@@H]1CO (some centres undefined) ? 104% (inactive)

Could you share which GFP response, % of DMSO value was measured for CCCC[N+]1(C)[C@@H]2CC(OC(=O)[C@H](CO)c3ccccc3)C[C@H]1[C@@H]1O[C@@H]12 (some centres undefined) ? 111% (inactive)

Could you share which GFP response, % of DMSO value was measured for Cc1ccsc1C(=O)C1CCCN(Cc2cc3ccccc3o2)C1 (centres undefined) ? 102% (inactive)

Could you share which GFP response, % of DMSO value was measured for S=C1NCCN1 ? 99.6% (inactive)

Could you share which GFP response, % of DMSO value was measured for c1ccc(Cn2ccnc2)cc1 ? 98.2% (inactive)

Could you share which GFP response, % of DMSO value was measured for CN1C2CCC1CC(OC(=O)CCN1CCCC1)C2 (centres undefined) ? 113% (inactive)

Could you share which GFP response, % of DMSO value was measured for C[C@H]1OC[C@@H](C[N+](C)(C)C)O1 ? 96.2% (inactive)

Could you share which GFP response, % of DMSO value was measured for O=C1NCCN2CCCC12 (centres undefined) ? 102% (inactive)

Could you share which GFP response, % of DMSO value was measured for c1ccc2c(c1)Nc1ccccc1S2 ? 84.7% (inactive)
